System: SNB-78
ASSAY REMARKS: NCI tumour cell line growth inhibition, 48 h
Active and inactive are the calls of the source. No stated cut-off is given here; in the data, active = GI50 up to about 1.1 µM and inactive = higher.
The following compounds are shown together with reported GI50 values.

compound="COC1/C=C\\C=C(/C)C(=O)NC2=CC(=O)C(N)=C(CC(C)CC(OC)C(O)C(C)C=C(C)C1OC(N)=O)C2=O (stereo not given)" result="3.55 µM (inactive)"

Which measured GI50 belongs to C[N+](C)=c1nc(N2CCOCC2)ss1 , tested on SNB-78?
> 100 µM (inactive)

Next compound: CNC(=O)OCc1cc2ccncc2c2c1[nH]c1ccccc12
> 72.6 µM (inactive)

* * *

Tested on: T47D
ASSAY REMARKS: NCI tumour cell line growth inhibition, 48 h
The source made the active and inactive calls. No stated cut-off is given here; in the data, active = GI50 up to about 1.1 µM and inactive = higher.
Entries and their measured GI50 follow.

Use the examples below as a reference point.
molecule="CC(C)CCCCCCCCCCCCC(=O)NCC(=O)NC1C(O)C(O)C(Nc2[nH]cnc3ncnc2-3)OC1C(O)CO (stereo unspecified)" measured_quantity=GI50 result="0.32 µM (active)"
molecule=O=S1(=O)c2cnccc2N=C(NCc2cccc3ccccc23)N1c1ccccc1 measured_quantity=GI50 result="54.7 µM (inactive)"
molecule=Cc1cccc(C)c1NC(=O)/C=C/c1ccccc1 measured_quantity=GI50 result="> 100 µM (inactive)"
molecule=CN(CCCNC(=O)c1cc(-c2ccccc2)nc2ccccc12)CCCNC(=O)c1cc(-c2ccccc2)nc2ccccc12 measured_quantity=GI50 result="2.95 µM (inactive)"
molecule=COC(OC)(c1ccccc1)C(I)I measured_quantity=GI50 result="19.2 µM (inactive)"

Returns the measured GI50 for the input molecule. Input: CC(=O)OC/C=C(/CCl)CCC(Br)C(C)(C)Br.CC(=O)OC/C=C(\CCl)CCC(Br)C(C)(C)Br (stereo unspecified)
> 10 µM (inactive)

What do you have for O=C(N/N=C1\CCc2ccccc21)N/N=C1\CCc2ccccc21 ?
> 100 µM (inactive)

Can you check CCCCCCNCCCNc1c2cc(OC)ccc2nc2cccc([N+](=O)[O-])c12 next?
0.109 µM (active)

Next molecule: O=c1c2cccnc2oc2c(Cl)cc(-c3nnn[nH]3)cc12
> 100 µM (inactive)

Please give the result for Fc1ccc(/N=N/N2CCCC2)cc1 too.
19.2 µM (inactive)

Same lookup for c1ccc(C[N+]23CN4CN(CN(C4)C2)C3)cc1 , please.
28.4 µM (inactive)

* * *

Entries and their GI50
Tested on: HOP-18
ASSAY REMARKS: NCI tumour cell line growth inhibition, 48 h
Calls of active or inactive are those of the source. Cut-off read from the data, not from the text of the source: active = GI50 up to about 1.1 µM and inactive = higher.

Some compounds with recorded GI50:
compound=CCOC(=O)C(=O)Nc1c(C)cccc1C(C)(C)C tested_on=HOP-18 measured_quantity=GI50 result="> 100 µM (inactive)"
compound=O=C(O)CCN(CCCCN(CCC(=O)O)CCC(=O)O)CCC(=O)O tested_on=HOP-18 measured_quantity=GI50 result="> 100 µM (inactive)"
compound=O=c1c2ccccc2n2cnc3ccc(NCCNCCO)c1c32 tested_on=HOP-18 measured_quantity=GI50 result="2.4 µM (inactive)"
compound="C=C1C(=O)OC2/C=C(CO)/C=C\\C3OC3(C)CC(OC(=O)/C(C)=C/COC(C)=O)C12 (stereo unspecified)" tested_on=HOP-18 measured_quantity=GI50 result="9.38 µM (inactive)"

Reported GI50, compound Cc1cc(NC(=O)NC(=O)c2ccccc2N)ccc1Oc1ncc(Br)cn1 : ____
28.8 µM (inactive)

What do you get for COc1ccc(/C=C2\CCC(CN3CCOCC3)C2=O)cc1 (stereo unspecified) ?
5.78 µM (inactive)

// data source = ChEMBL document CHEMBL1201862
